- testProtocol: solvent given as SMILES
- assayContext: in Cc1ccc(C)cc1
propertyName: solvation free energy, 298 K (kcal/mol)

1) OCCCl; -4.77
2) Cc1ccc(O)c(O)c1; -9.05
3) CCCC; -2.33
4) CC(C)O; -3.39
5) CC(C)C; -2.06
6) CC(C)CCO; -4.93
7) COC(=O)c1ccccc1O; -7.64
8) C#CC=C; -3.07
9) O=C(c1ccccc1)C(O)c1ccccc1 (stereo unspecified); -15
10) Oc1ccccc1Cl; -6.37
11) CCC1CCCCC1; -5.35
12) C=CC=C; -2.45
13) CCCCCCCCCC; -6.68
14) CCCl; -2.83
15) C(=Cc1ccccc1)c1ccccc1; -11.3
16) CCN(CC)CC; -4.52
17) Oc1ccccc1Br; -7.18
18) CCc1ccc(O)cc1; -7.85
19) CCC; -1.56
20) C1COCCO1; -4.8
21) CCCCCCCCCCCCCCCCCCCCCCCCCCCC; -19.3

Values compiled from the CombiSolv-Exp solvation set (Vermeire and Green 2021).
